Entry source: paper PMC6274529

Consider the following compounds and their measured IC50 readings.
# measuredTarget: ACE enzyme (from rabbit lung) (Oryctolagus cuniculus)
# Sequence (P12822 34-1310): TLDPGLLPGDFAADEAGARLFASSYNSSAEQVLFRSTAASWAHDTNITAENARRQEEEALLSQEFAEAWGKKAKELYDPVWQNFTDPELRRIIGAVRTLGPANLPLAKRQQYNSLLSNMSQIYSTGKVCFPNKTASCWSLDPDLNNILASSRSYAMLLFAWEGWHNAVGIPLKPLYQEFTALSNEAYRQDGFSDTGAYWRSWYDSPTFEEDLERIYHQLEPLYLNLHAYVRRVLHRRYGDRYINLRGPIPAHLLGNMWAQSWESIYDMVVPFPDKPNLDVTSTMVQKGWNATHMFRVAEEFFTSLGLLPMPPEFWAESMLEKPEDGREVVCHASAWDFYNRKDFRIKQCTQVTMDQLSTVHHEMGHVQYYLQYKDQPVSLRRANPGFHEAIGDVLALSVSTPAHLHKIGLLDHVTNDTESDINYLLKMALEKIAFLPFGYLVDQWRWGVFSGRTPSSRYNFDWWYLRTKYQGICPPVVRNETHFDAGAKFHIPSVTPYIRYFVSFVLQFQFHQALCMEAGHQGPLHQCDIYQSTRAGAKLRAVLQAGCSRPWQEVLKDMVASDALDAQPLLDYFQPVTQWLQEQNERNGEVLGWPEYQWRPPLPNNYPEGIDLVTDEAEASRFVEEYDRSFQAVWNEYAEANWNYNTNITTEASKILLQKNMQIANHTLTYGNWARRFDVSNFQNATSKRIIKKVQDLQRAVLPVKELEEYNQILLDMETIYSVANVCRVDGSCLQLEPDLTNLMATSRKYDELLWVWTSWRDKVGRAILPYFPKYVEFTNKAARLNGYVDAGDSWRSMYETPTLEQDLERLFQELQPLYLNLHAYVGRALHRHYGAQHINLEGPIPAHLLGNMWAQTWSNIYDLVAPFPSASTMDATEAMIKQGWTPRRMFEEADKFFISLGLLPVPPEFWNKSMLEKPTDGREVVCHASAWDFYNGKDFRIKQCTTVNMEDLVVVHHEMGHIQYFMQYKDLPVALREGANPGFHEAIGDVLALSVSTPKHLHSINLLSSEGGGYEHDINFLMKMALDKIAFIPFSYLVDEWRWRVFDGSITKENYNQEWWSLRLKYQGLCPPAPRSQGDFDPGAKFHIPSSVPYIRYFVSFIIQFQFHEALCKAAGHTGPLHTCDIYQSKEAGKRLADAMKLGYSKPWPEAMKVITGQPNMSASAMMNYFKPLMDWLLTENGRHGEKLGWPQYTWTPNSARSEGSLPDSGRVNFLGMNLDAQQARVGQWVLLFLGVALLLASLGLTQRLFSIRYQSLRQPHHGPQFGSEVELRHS
# testMethodNotes: In vitro ACE inhibition activity (HA formation from HHL, HPLC-UV)
The response must be a number in µM with no trailing unit.

These solved cases illustrate the format of a correct answer.
COc1ccc(-c2cc(=O)c3c(OC)c(OC)c(OC)cc3o2)cc1OC :: 79.2
O=C(/C=C/c1ccc(O)c(O)c1)O[C@H](Cc1ccc(O)c(O)c1)C(=O)O :: 52.2

Query: Please give measured IC50 of the following entry: COc1ccc(-c2cc(=O)c3c(OC)c(OC)c(OC)cc3o2)cc1O [TMF, 3′-hydroxy-5,6,7,4′-tetramethoxyflavone]
Result: 77.9
